Recorded protein stability index by entry
B1: KCNA3 (parent)
chain: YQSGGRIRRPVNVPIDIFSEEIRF

# Variants of: B1
# ASSAY_REMARKS: protein stability index of a GFP-peptide fusion (GPS, HEK-293T) (PSI 1-6); higher = more stable;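 further: lentivirally expressed fusions sorted by FACS into six bins by GFP to DsRed ratio, PSI derived from sequencing read proportions per bin multiplied by bin number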
# APPLIED_CONDITIONS: c terminus: a fixed tail appended

[
  {
    "MUTANT_LABEL": "I17D",
    "protein stability index": 2.34
  },
  {
    "MUTANT_LABEL": "Q2L",
    "protein stability index": 2.41
  },
  {
    "MUTANT_LABEL": "R8N",
    "protein stability index": 2.2
  },
  {
    "MUTANT_LABEL": "S19C",
    "protein stability index": 1.39
  },
  {
    "MUTANT_LABEL": "S19E",
    "protein stability index": 1.87
  },
  {
    "MUTANT_LABEL": "R23C",
    "protein stability index": 1.23
  },
  {
    "MUTANT_LABEL": "D16V",
    "protein stability index": 1.19
  },
  {
    "MUTANT_LABEL": "I17Y",
    "protein stability index": 2.79
  },
  {
    "MUTANT_LABEL": "D16F",
    "protein stability index": 1.33
  },
  {
    "MUTANT_LABEL": "I7K",
    "protein stability index": 3.34
  },
  {
    "MUTANT_LABEL": "R8A",
    "protein stability index": 2.57
  },
  {
    "MUTANT_LABEL": "R9N",
    "protein stability index": 2.12
  },
  {
    "MUTANT_LABEL": "P14F",
    "protein stability index": 1.07
  },
  {
    "MUTANT_LABEL": "I17P",
    "protein stability index": 3.32
  },
  {
    "MUTANT_LABEL": "F24N",
    "protein stability index": 3.24
  },
  {
    "MUTANT_LABEL": "E21P",
    "protein stability index": 1.65
  },
  {
    "MUTANT_LABEL": "V13S",
    "protein stability index": 2.11
  },
  {
    "MUTANT_LABEL": "I17K",
    "protein stability index": 2.05
  },
  {
    "MUTANT_LABEL": "I15H",
    "protein stability index": 2.16
  },
  {
    "MUTANT_LABEL": "R6H",
    "protein stability index": 2.23
  },
  {
    "MUTANT_LABEL": "P14G",
    "protein stability index": 1.9
  },
  {
    "MUTANT_LABEL": "P10I",
    "protein stability index": 1.78
  }
]
